Origin of measurements: patent US7902361B2

target: CDK2/cyclin E (Homo sapiens, UniProt P24941); assay: Kinase assay CDK2/cyclin E; conditions: Ki calculated (Cheng-Prusoff) from experimentally determined IC50 and Km,ATP; read-out: Kinase Inhibition Ki CDK2 - cyclin E
We begin with a simple list: items and their reported pKi.
On this scale, pKi is minus log10 of a concentration expressed in M (mol/L).

Solved entries:
COc1ccc(Nc2nccc(-c3sc(=O)n(CCC(C)C)c3C)n2)cn1	6.18
CCn1c(C)c(-c2ccnc(Nc3ccc(Cl)c(C(=O)OC)c3)n2)sc1=O	5.57
Cc1c(-c2ccnc(Nc3ccc(S(=O)(=O)NCc4ccccc4)cc3)n2)sc(=O)n1C	7.10

With those in mind, consider the next compound.
Query: Tell me its pKi given CNc1cc(Nc2nccc(-c3sc(=O)n(C)c3C)n2)cc(C(F)(F)F)c1 as the entry.
Result: 7.05

---

Target: CDK1/cyclin B (Homo sapiens, UniProt P06493)
Sequence (P06493 whole entry, species assumed): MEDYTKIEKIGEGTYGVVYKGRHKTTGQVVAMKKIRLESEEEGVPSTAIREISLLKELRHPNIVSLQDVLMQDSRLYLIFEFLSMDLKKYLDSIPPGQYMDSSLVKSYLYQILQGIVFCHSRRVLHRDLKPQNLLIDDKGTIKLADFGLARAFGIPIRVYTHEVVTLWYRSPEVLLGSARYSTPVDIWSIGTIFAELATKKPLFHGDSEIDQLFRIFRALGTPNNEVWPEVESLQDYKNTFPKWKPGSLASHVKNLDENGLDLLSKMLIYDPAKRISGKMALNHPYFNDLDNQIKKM
Sequence (P14635 whole entry partner, species assumed): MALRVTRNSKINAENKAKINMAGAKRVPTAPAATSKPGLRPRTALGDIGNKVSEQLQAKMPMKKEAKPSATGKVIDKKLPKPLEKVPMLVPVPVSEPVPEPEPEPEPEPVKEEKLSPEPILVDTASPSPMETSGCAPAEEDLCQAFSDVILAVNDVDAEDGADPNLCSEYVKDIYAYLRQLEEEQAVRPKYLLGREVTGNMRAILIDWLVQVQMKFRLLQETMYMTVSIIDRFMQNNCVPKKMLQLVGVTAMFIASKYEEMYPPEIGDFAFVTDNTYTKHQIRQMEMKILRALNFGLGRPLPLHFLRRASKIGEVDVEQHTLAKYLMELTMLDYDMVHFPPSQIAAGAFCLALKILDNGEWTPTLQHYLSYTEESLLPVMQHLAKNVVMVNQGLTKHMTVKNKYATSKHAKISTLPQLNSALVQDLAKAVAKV
Experiment: Kinase assay CDK1/cyclin B (radioactive phosphate incorporation)
Settings: Ki calculated (Cheng-Prusoff) from experimentally determined IC50 and Km,ATP; read-out: Kinase Inhibition Ki CDK1 - cyclin B
Description: The compounds from the examples above were investigated for their ability to inhibit the enzymatic activity of various protein kinases. This was achieved by measurement of incorporation of radioactive phosphate from ATP into appropriate polypeptide substrates. […] After washing 3 times with 75 mM aq orthophosphoric acid, plates were dried, scintillant added and incorporated radioactivity measured in a scintillation counter (TopCount, Packard Instruments, Pangbourne, Berks, UK). […]
measured.quantity: pKi
On this scale, pKi is minus log10 of a concentration expressed in M (mol/L).

Solved entries:
Cc1ccc(Nc2nccc(-c3sc(=O)n(C)c3C)n2)cc1I	6.15
Cc1c(-c2ccnc(Nc3cccc(CNS(=O)(=O)C(F)(F)F)c3)n2)sc(=O)n1C	5.96
CCn1c(C)c(-c2ccnc(Nc3ccc([N+](=O)[O-])cc3)n2)sc1=O	6.14

Query: Tell me its pKi given CCn1c(C)c(-c2ccnc(Nc3ccc(OC)nc3)n2)sc1=O as the entry.
Result: 7.52

Query: Tell me its pKi given Cc1c(-c2ccnc(Nc3cccc([N+](=O)[O-])c3)n2)sc(=O)n1CCC(C)C as the entry.
Result: 6.17

---

We begin with a simple list: items and their reported concentration at 60 min.
assay: Blood levels of test compounds in ZDF fa/fa rats; type: in vivo, rat; conditions: male, rat, whole blood, oral; ZDF fa/fa rats; 30 mg/kg per os twice; time 60 min
Write the answer as a number in ng/mL, unit excluded.

CC(=O)Nc1cc(Nc2nccc(-c3sc(=O)n(C)c3C)n2)cc(C(F)(F)F)c1 [Compound 64]	268

Query: Tell me its concentration at 60 min given Cc1c(-c2ccnc(Nc3ccc(Cl)c(C(F)(F)F)c3)n2)sc(=O)n1C [Compound 66] as the entry.
Result: 162

Query: Tell me its concentration at 60 min given COCCNS(=O)(=O)c1cccc(Nc2nccc(-c3sc(=O)n(C)c3C)n2)c1 [Compound 67] as the entry.
Result: 271

Query: Tell me its concentration at 60 min given Cc1c(-c2ccnc(Nc3cc(Br)cc(C(F)(F)F)c3)n2)sc(=O)n1C [Compound 68] as the entry.
Result: 70.1

Query: Tell me its concentration at 60 min given CCNS(=O)(=O)c1cccc(Nc2nccc(-c3sc(=O)n(C)c3C)n2)c1 [Compound 62] as the entry.
Result: 29.7

---

target: CDK2/cyclin E (Homo sapiens, UniProt P24941); assay: Kinase assay CDK2/cyclin E; conditions: Ki calculated (Cheng-Prusoff) from experimentally determined IC50 and Km,ATP; read-out: Kinase Inhibition Ki CDK2 - cyclin E
We begin with a simple list: items and their reported pKi.
On this scale, pKi is minus log10 of a concentration expressed in M (mol/L).

Solved entries:
Cc1[nH]c(=O)sc1-c1ccnc(Nc2cccc([N+](=O)[O-])c2)n1 [Compound 40]	8.49
Cc1c(-c2ccnc(Nc3cccc(S(=O)(=O)N4CCOCC4)c3)n2)sc(=O)n1C [Compound 79]	5.82
Cc1c(-c2ccnc(Nc3cccc(S(=O)(=O)NCCO)c3)n2)sc(=O)n1C [Compound 75]	6.42
Cc1c(-c2ccnc(Nc3ccc(N4CCNCC4)cc3)n2)sc(=O)n1C [Compound 38]	6.74

Query: Give pKi for Cc1c(-c2ccnc(Nc3cccc(CNS(C)(=O)=O)c3)n2)sc(=O)n1C [Compound 55] tested on CDK2/cyclin E (Homo sapiens, UniProt P24941).
Result: 7.41

Query: Give pKi for Cc1ccc(Nc2nccc(-c3sc(=O)n(C)c3C)n2)cc1N [Compound 39] tested on CDK2/cyclin E (Homo sapiens, UniProt P24941).
Result: 7.01

Query: Give pKi for CCn1c(C)c(-c2ccnc(Nc3ccc(S(=O)(=O)O)cc3)n2)sc1=O [Compound 53] tested on CDK2/cyclin E (Homo sapiens, UniProt P24941).
Result: 6.74

---

biological target: CDK2/cyclin E (Homo sapiens); assay: Kinase assay CDK2/cyclin E; conditions: Ki calculated (Cheng-Prusoff) from experimentally determined IC50 and Km,ATP; read-out: Kinase Inhibition Ki CDK2 - cyclin E
We begin with a simple list: items and their reported pKi.
On this scale, pKi is minus log10 of a concentration expressed in M (mol/L).

Cc1c(-c2ccnc(Nc3ccc(N4CCN(Cc5ccccc5)CC4)cc3)n2)sc(=O)n1C [Compound 69]	6.80
Cc1c(-c2ccnc(Nc3cccc(CNS(=O)(=O)C(F)(F)F)c3)n2)sc(=O)n1C [Compound 58]	7.00
Cc1c(-c2ccnc(Nc3cccc(C(F)(F)F)c3)n2)sc(=O)n1C [Compound 19]	5.77

Query: Tell me its pKi given Cc1c(-c2ccnc(Nc3cccc(O)c3)n2)sc(=O)n1C [Compound 7] as the entry.
Result: 7.37

Query: Tell me its pKi given Cc1c(-c2ccnc(Nc3cccc(CNC(=O)c4ccccc4)c3)n2)sc(=O)n1C [Compound 57] as the entry.
Result: 7.28

---

We begin with a simple list: items and their reported Ki.
target: CDK4/cyclin D1 (Homo sapiens, UniProt P11802); test: Kinase assay CDK4/cyclin D1; settings: Ki calculated (Cheng-Prusoff) from experimentally determined IC50 and Km,ATP; read-out: Kinase Inhibition Ki CDK4 - cyclin D1
Sequence (P11802 whole entry, species assumed): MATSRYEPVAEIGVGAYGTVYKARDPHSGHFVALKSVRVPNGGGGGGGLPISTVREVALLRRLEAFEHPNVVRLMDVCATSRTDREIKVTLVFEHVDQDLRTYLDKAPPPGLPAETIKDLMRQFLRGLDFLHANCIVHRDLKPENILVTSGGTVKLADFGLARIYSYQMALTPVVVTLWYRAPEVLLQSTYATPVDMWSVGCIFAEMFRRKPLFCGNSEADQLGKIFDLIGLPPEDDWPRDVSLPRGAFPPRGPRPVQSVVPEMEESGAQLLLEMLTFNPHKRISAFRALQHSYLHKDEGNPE
Sequence (P24385 whole entry partner, species assumed): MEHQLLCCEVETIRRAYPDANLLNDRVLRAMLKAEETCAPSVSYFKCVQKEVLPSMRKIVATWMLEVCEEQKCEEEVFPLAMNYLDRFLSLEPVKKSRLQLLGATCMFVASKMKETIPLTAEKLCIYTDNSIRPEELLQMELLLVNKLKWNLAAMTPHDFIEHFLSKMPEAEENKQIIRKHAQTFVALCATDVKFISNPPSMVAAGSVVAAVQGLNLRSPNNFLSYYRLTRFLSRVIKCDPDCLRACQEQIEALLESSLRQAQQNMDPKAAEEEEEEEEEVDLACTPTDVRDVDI
Write the answer as a number in nM, unit excluded.

Solved entries:
Cc1c(-c2ccnc(Nc3ccc(N(C)C)c([N+](=O)[O-])c3)n2)sc(=O)n1C	1300
Cc1c(-c2ccnc(Nc3cccc(S(N)(=O)=O)c3)n2)sc(=O)n1C	22

Query: Tell me its Ki given Cc1c(-c2ccnc(Nc3cccc(CNC(=O)c4ccccc4)c3)n2)sc(=O)n1C as the entry.
Result: 21

Query: Tell me its Ki given Cc1ccc(Nc2nccc(-c3sc(=O)[nH]c3C)n2)cc1[N+](=O)[O-] as the entry.
Result: 130

---

biological target: CDK9/cyclin T1 (Homo sapiens, UniProt P50750); assay: Kinase assay CDK9/cyclin T1; details: Ki calculated (Cheng-Prusoff) from experimentally determined IC50 and Km,ATP; read-out: Kinase Inhibition Ki CDK9 - cyclin T1
Sequence (P50750 whole entry, species assumed): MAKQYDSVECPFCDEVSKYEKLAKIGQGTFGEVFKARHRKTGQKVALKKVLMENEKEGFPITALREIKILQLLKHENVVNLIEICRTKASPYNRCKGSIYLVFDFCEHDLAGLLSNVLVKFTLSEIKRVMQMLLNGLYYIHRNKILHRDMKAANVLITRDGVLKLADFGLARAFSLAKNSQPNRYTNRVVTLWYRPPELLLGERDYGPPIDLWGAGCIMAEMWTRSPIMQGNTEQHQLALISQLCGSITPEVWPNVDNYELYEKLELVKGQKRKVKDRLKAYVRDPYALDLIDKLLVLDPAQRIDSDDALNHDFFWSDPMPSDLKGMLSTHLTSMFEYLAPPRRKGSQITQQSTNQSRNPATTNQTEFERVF
Sequence (O60563 whole entry partner, species assumed): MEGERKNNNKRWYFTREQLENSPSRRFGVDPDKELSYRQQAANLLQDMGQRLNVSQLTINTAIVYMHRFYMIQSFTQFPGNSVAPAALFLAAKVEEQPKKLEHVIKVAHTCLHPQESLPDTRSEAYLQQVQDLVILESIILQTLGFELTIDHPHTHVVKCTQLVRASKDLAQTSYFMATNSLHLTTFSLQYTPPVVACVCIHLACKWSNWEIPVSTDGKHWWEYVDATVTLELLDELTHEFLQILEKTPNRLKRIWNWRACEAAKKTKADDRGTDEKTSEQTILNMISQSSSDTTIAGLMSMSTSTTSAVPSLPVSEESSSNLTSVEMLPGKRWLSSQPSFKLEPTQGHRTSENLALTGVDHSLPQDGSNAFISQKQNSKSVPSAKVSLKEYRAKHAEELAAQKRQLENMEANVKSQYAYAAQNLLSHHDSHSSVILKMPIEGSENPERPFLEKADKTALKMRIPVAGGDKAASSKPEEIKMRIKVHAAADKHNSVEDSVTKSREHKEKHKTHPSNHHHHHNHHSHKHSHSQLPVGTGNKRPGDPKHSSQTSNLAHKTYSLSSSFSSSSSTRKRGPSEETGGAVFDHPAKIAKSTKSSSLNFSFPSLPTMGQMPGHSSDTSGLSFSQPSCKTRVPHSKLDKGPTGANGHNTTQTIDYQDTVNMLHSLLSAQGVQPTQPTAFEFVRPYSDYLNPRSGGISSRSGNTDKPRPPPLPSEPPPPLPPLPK
We begin with a simple list: items and their reported Ki.
Write the answer as a number in nM, unit excluded.

Solved entries:
CC(=O)Nc1cc(Nc2nccc(-c3sc(=O)n(C)c3C)n2)cc(C(F)(F)F)c1	5.7
Cc1c(-c2ccnc(Nc3ccc(Cl)nc3)n2)sc(=O)n1CCC(C)C	1800
Cc1cc(Nc2nccc(-c3sc(=O)n(C)c3C)n2)ccc1F	24
CC(=O)Nc1nccc(-c2sc(=O)n(C)c2C)n1	290
Cc1c(-c2ccnc(Nc3ccc(N4CCN(C)CC4)cc3)n2)sc(=O)n1C	93

Query: Tell me its Ki given CC(=O)N1CCN(c2ccc(Nc3nccc(-c4sc(=O)n(C)c4C)n3)cc2)CC1 as the entry.
Result: 77

---

molecular target: CDK2/cyclin A (Homo sapiens, UniProt P24941); assay: Kinase assay CDK2/cyclin A; settings: Ki calculated (Cheng-Prusoff) from experimentally determined IC50 and Km,ATP; read-out: Kinase Inhibition Ki CDK2 - cyclin A
We begin with a simple list: items and their reported Ki.
Write the answer as a number in nM, unit excluded.

Cc1c(-c2ccnc(Nc3cccc([N+](=O)[O-])c3)n2)sc(=O)n1CCC(C)C [Compound 30]	560
CCNS(=O)(=O)c1cccc(Nc2nccc(-c3sc(=O)n(C)c3C)n2)c1 [Compound 62]	610
Cc1c(-c2ccnc(Nc3cccc(S(=O)(=O)NCCO)c3)n2)sc(=O)n1C [Compound 75]	410
Cc1ccc(Nc2nccc(-c3sc(=O)[nH]c3C)n2)cc1[N+](=O)[O-] [Compound 41]	23
COc1ccc(Nc2nccc(-c3sc(=O)n(C)c3C)n2)cc1 [Compound 6]	190

Query: Tell me its Ki given Cc1ccc(Nc2nccc(-c3sc(=O)n(C)c3C)n2)cc1[N+](=O)[O-] [Compound 11] as the entry.
Result: 220

Query: Tell me its Ki given Cc1[nH]c(=O)sc1-c1ccnc(Nc2cccc([N+](=O)[O-])c2)n1 [Compound 40] as the entry.
Result: 11

Query: Tell me its Ki given Cc1c(-c2ccnc(Nc3ccc(Cl)nc3)n2)sc(=O)n1CCC(C)C [Compound 34] as the entry.
Result: 600

Query: Tell me its Ki given Cc1c(-c2ccnc(Nc3ccc(Cl)cc3)n2)sc(=O)n1C [Compound 4] as the entry.
Result: 200
